All values here come from paper PMC5320532.

System: P-gp
procedure-text: Intracellular compound accumulation (Kp) and intracellular bioavailability (Fic)
measurement-parameters: dog, P-gp-KO (CRISPR) MDCK cells
Kind request: treat 40 as inclusive, so Kp at 45 min, 0.5 μM at 40 or higher is Fulfilled, anything lower is Not fulfilled.

Input: Please check the record CCOc1nc2cccc(C(=O)O)c2n1Cc1ccc(-c2ccccc2-c2nnn[nH]2)cc1 [Candesartan] and state if its Kp at 45 min, 0.5 μM is at or above 40.
Output: Not fulfilled

Input: # bool: Kp at 45 min, 0.5 μM of O=C(O)C[C@H](O)C[C@H](O)/C=C/c1c(C2CC2)nc2ccccc2c1-c1ccc(F)cc1 [Pitavastatin] >= 40
Output: Not fulfilled

Input: # bool: Kp at 45 min, 0.5 μM of COc1ccc2c(c1)c(CC(=O)O)c(C)n2C(=O)c1ccc(Cl)cc1 [Indomethacin] >= 40
Output: Not fulfilled

Input: Hello, I need to know if CC(C)(C)NC(=O)[C@@H]1C[C@@H]2CCCC[C@@H]2CN1C[C@@H](O)[C@H](Cc1ccccc1)NC(=O)[C@H](CC(N)=O)NC(=O)c1ccc2ccccc2n1 [Saquinavir] has measured Kp at 45 min, 0.5 μM not below 40. Thanks!
Output: Fulfilled

Input: Say whether O=C(O)Cc1ccccc1Nc1c(Cl)cccc1Cl [Diclofenac] shows Kp at 45 min, 0.5 μM of 40 or more.
Output: Not fulfilled

Input: Item CC(C)n1c(/C=C/C(O)CC(O)CC(=O)O)c(-c2ccc(F)cc2)c2ccccc21 (centres unmarked) [Fluvastatin] with Kp at 45 min, 0.5 μM of 40 or above?
Output: Fulfilled

Input: Test whether the molecule CCOc1cc(CC(=O)N[C@@H](CC(C)C)c2ccccc2N2CCCCC2)ccc1C(=O)O [Repaglinide] records Kp at 45 min, 0.5 μM of 40 or higher.
Output: Fulfilled

Input: Is it the case that CC(C)NCC(O)COc1cccc2ccccc12 (centres unmarked) [Propranolol] has Kp at 45 min, 0.5 μM reaching or exceeding 40?
Output: Fulfilled

* * *

procedure-text: Intracellular compound accumulation (Kp) and intracellular bioavailability (Fic)
measurement-parameters: human, mock-transfected HEK293 cells
Hi there, I'd appreciate the recorded Kp at 45 min, 0.1 μM for every entry that follows.

The measured Kp at 45 min, 0.1 μM associated with NC(=O)N1c2ccccc2C=Cc2ccccc21 [Carbamazepine] reads 7.5

Looking up CCC(C)(C)C(=O)O[C@H]1C[C@@H](C)C=C2C=C[C@H](C)[C@H](CC[C@@H](O)C[C@@H](O)CC(=O)O)[C@H]21 , I see its Kp at 45 min, 0.1 μM listed as 41

Consider CC(C)(C)NC(=O)[C@@H]1C[C@@H]2CCCC[C@@H]2CN1C[C@@H](O)[C@H](Cc1ccccc1)NC(=O)[C@H](CC(N)=O)NC(=O)c1ccc2ccccc2n1 . Its measured Kp at 45 min, 0.1 μM is 272

Input CCc1c2c(nc3ccc(OC(=O)N4CCC(N5CCCCC5)CC4)cc13)-c1cc3c(c(=O)n1C2)COC(=O)[C@]3(O)CC . Output Kp at 45 min, 0.1 μM: 8.4

* * *

procedure-text: Intracellular fraction of unbound compound (fu,cell), dialysis of cell homogenate
measurement-parameters: dog, homogenate of MDCK cells transfected with human P-gp
Would you please tag the item TRUE when its fraction unbound at 4 h is 0.02 or above, and FALSE when it is below?

Input: State whether the measured fraction unbound at 4 h reaches 0.02, counting equality as reaching it, for CN(CCOc1ccc(CC2SC(=O)NC2=O)cc1)c1ccccn1 (stereo not drawn)
Output: TRUE

Input: fraction unbound at 4 h >= 0.02 for CN(C)CCCN1c2ccccc2CCc2ccccc21 ?
Output: FALSE

Input: Confirm if fraction unbound at 4 h reported for the molecule C[C@H]1O[C@@H](O[C@H]2[C@@H](O)C[C@H](O[C@H]3[C@@H](O)C[C@H](O[C@H]4CC[C@@]5(C)[C@H](CC[C@@H]6[C@@H]5C[C@@H](O)[C@]5(C)[C@@H](C7=CC(=O)OC7)CC[C@]65O)C4)O[C@@H]3C)O[C@@H]2C)C[C@H](O)[C@@H]1O is 0.02 or above.
Output: TRUE

Input: Check if fraction unbound at 4 h >= 0.02 (inclusive). Item: CC(C)(C)NC(=O)[C@@H]1C[C@@H]2CCCC[C@@H]2CN1C[C@@H](O)[C@H](Cc1ccccc1)NC(=O)[C@H](CC(N)=O)NC(=O)c1ccc2ccccc2n1
Output: FALSE

Input: Hi, just wondering whether COCCc1ccc(OCC(O)CNC(C)C)cc1 (stereo not drawn) shows fraction unbound at 4 h of 0.02 or higher.
Output: TRUE

Input: Quick check: does CC[C@H](C)C(=O)O[C@H]1C[C@@H](C)C=C2C=C[C@H](C)[C@H](CC[C@@H]3C[C@@H](O)CC(=O)O3)[C@H]21 have fraction unbound at 4 h greater than or equal to 0.02?
Output: FALSE
